- measurement.protocol: Cytotoxicity against human EJ28 cells after 72 hrs by MTT assay
- Type: functional, cell-based
- measurement.context: EJ-28, 72 h
Below, each entry is listed alongside its reported IC50.
Write the answer as a number in µM, unit excluded.

Worked examples, 4 compounds total:
{"columns": ["smiles.str", "recorded.endpoint", "value.observed"],
 "data": [
  ["COc1ccc(/C=C2\\CCC/C(=C\\c3ccc(O)cc3)C2=O)cc1OC", "IC50", 16.6],
  ["COc1cccc(/C=C2\\CCC/C(=C\\c3ccc(Br)cc3)C2=O)c1OC", "IC50", 15.2],
  ["COc1cc(/C=C2\\CCC/C(=C\\c3ccc(OC)c(OC)c3)C2=O)ccc1O", "IC50", 4.6],
  ["COc1ccc(/C=C2\\CCC/C(=C\\c3ccc(O)c(O)c3)C2=O)cc1OC", "IC50", 12.1]
]}

Shift focus to the following entry.
Quick note, IC50 for COc1cccc(/C=C2\CCC/C(=C\c3cccc(O)c3)C2=O)c1OC landed at 8.5
